- Test system: MS2 coat protein
- protocol-description: apparent KD of MS2 coat protein; designed switch direction (-1 OFF switch, 1 ON switch): -1; higher = weaker reporter binding
- condition-description: input ligand: microRNA oligo, concentration not stated
apparent KD of MS2 coat protein values, listed per item
Number only, in nM; omit the unit.

{"columns": ["record-sequence", "measurement-label", "numeric-readout"],
 "data": [
  ["AUUGUUUGAUACCUCUAAUACAUGAGGAUCACCCAUGUUAUCGAGGAUAUGCAGUAGAGUGGAGAGCAGAAGGCGAAGUAAGUG [JR_ExcNG3_Sub028] (Eterna round: R96, puzzle: Exclusion NG 3)", "apparent KD of MS2 coat protein", 14.4]
]}

# evaluate next
Consider the sequence AGUACAAUCACGAAAGUGAUUGUACAAUAAGCUUGUGAAACAUGAGGAUCACCCAUGUCCUCAUAAGCUCGUCUUAU [Mat - Sensor v2 -ver2- JL mod - D69] (Eterna round: R96, puzzle: Sensor v2, turn-off variant 2) and give its recorded apparent KD of MS2 coat protein.
416

###

- System: MS2 coat protein
- protocol-description: apparent KD of MS2 coat protein; designed switch direction (-1 OFF switch, 1 ON switch): -1; higher = weaker reporter binding
- condition-description: input ligand: none
measurement-label: apparent KD of MS2 coat protein (µM)
Answer in µM, number only, no unit symbol.

Dear colleague, please send me the reported apparent KD of MS2 coat protein for AAACCCUGAGGAUAUACAUAACAACAAAGCCUCACGUGCCAACAUGAGGAUCACCCAUGUAGAAGGCGGGCCAA [Mod R3 Insanara 14 - Jieux - Exclusion 2] (Eterna round: R97, puzzle: Exclusion 2) when you can.
0.0151

###

As shown below, each of these sequences has a reported apparent KD of K4 kissing-loop reporter value.
- Test system: K4 kissing-loop RNA reporter;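 note: bound reporter read as fluorescence of individual clusters on recovered sequencing chips by microscopy, with normalized cluster intensities fitted with a binding model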
- protocol-description: apparent KD of K4 kissing-loop reporter; higher = weaker reporter binding
- condition-description: Eterna round: R107; input ligand: FMN 200 uM
Express the result in µM but write the number alone.

Solved entries (count: 5):
{"columns": ["record-sequence", "unit-tag", "numeric-readout"],
 "data": [
  ["AUAAUUAUGACGGCCGCCACUGAGAGUAGUGAUGUUACUCUUUUCCUUUAGUAAUAAUUUUUUAUCAGGACCGGGUUAUUUGAAU [JR_Nu_ExcTryptoB_Sub027]", "µM", 0.0687],
  ["GGCCAAAGAGAGUGAUGUUCUCAAUAUGAAGGAGCGCCCGAAAGGGCAGGUAGGUCGCAUAACGGCCACCUACGAAAAGUAGGAA [#SwitchBubble 4 #K4Early]", "µM", 0.0913],
  ["AUUUUUUUGUCAGGAUAUUAGUAUGGUUUUGGUUUGUUAGUGAUGUUGAUAUUUUGUUUAUGUAUUUAAGAAGGGAUUUAGCGGU [gyhhgumullin]", "µM", 0.404],
  ["UAGUCCUAGUGAUCCUUAUCAAGUGGUGGGCGAGGACCGGUACGGCCGCCACUCGACUAUGCAGUGAUGUUGCAAUCCGGACAAU [Exclusion - Tryptophan A (Freestyle 13)]", "µM", 0.191],
  ["GAUGAACUAUUCGAUACCAGACUACAUGAGUGAUGUUCAUGUGUGUCAAUGUCUAUGUCAGUCCCUUGGCAGCGAAUAGUUUAUC [KL-XTheo-B27]", "µM", 0.146]
]}

Kindly consider the entry below.
Tell me its apparent KD of K4 kissing-loop reporter given GGAUCCACCAGUGAUGUUGGAGAAAACUCCAAGGAUAUGACGAAAGUCAGAAGGUGGUAGACUGGGCAAAGUCCGGUCGGAUCCA [FmnA10 G66] as the entry.
3.15

###

- Test system: MS2 coat protein
- protocol-description: apparent KD of MS2 coat protein; higher = weaker reporter binding
- condition-description: Eterna round: R107; input ligand: theophylline 2 mM
Catalogue of apparent KD of MS2 coat protein readings, one per entry.
The figure you give is taken to be in µM; do not add the unit.

Examples from the recorded data:
{"columns": ["record-sequence", "measured-target", "apparent KD of MS2 coat protein (µM)"],
 "data": [
  ["GUUAUUAGAAAACUAAUAACAGUGGGUGAACGAGGACCGGUACGGCCGCCACUCGGACAUGAGGAUCACCCAUGUCCAUGUGAAA [AstrosExyTryA#4]", "MS2 coat protein", 0.0165],
  ["AGAGGUAUACAUGGAAACAUGUAUAUUUCACGAGGACCGGUACGGCCGCCACUCGGUACCGGAAACACAUGAGGAUCACCCAUGU [Ex_TrypA - H1]", "MS2 coat protein", 0.0243]
]}

Give MS2 coat protein apparent KD of MS2 coat protein for the following sequence: ACAUGAGGAUCACCCAUGUACGAGUCGGAAGGAGCGGCAAUUAAGCCAGGUAGGUCGCCGGCAGAGAGUGUCAUUGUAAGUAUGA [Same State - Arginine A / A]
0.0123

Name the recorded apparent KD of MS2 coat protein of AAACAUGAGGAUCACCCAUGUCCUCGUGAUCGAGGACCGGUACGGCCGCCACUCGGUCCUCGCGAGGUGGAGUCAAAGACUCCAA [Omei Trp A SS A v7] , assay system MS2 coat protein.
0.115

Please report apparent KD of MS2 coat protein with MS2 coat protein for item GGAUAGGACAGAAGGAGCGACAUCGCCGAAAGGCUGGUAAGAUCACAUGAGGAUCACCCAUGUCAGGUAGGUCGCUGUCCUAUCG [ArgXB 11 #Zipper #MS2Left #StaticStem #Blueprint] .
0.627

Name the recorded apparent KD of MS2 coat protein of `UGUAUGUGAUCUGAUACCAGAGUGAAUAAACCUGAGGAUCACCCUGGUAGGCGAAAGCCACUCCCUUGGCAGCAGAUCGCAUACU` , assay system MS2 coat protein.
0.0386

###

- Tested on: MS2 coat protein
- protocol-description: apparent KD of MS2 coat protein; designed switch direction (-1 OFF switch, 1 ON switch): -1; higher = weaker reporter binding
- condition-description: input ligand: FMN 200 uM
Listed next: entries and their corresponding apparent KD of MS2 coat protein.
Note: unit µM is implicit; provide only the numeric part.

Look over these answered cases.
{"columns": ["record-sequence", "measured-target", "measurement-label", "numeric-readout"],
 "data": [
  ["CUCAUGCCUGAGGAUAUGCUGUACAAAAGUACUGCAGAAGGCGGGACAUGAGGAUCACCCAUGUGGCGAAAGCC [Omei Ex G8] (Eterna round: R97, puzzle: Exclusion 6)", "MS2 coat protein", "apparent KD of MS2 coat protein", 0.0787],
  ["UUUUUACAUGAGGAUCACCCAUGUGAGGAUAUGAGGGUUAGCUUAAAUGGGCUGACUUUCAGAAGGCACAUGAA [JR_Ex1_Sub059] (Eterna round: R97, puzzle: Exclusion 1)", "MS2 coat protein", "apparent KD of MS2 coat protein", 0.28],
  ["CCGUCCCGCCCUGGGUGGGACAUGAGGAUCACCCAUGUGGGUUUUCUUUCUUUCACCCGGGCGGGCGGGCGGGCUGG [sensor,turn-off variant1(1)] (Eterna round: R97, puzzle: Sensor, turn-off variant 1)", "MS2 coat protein", "apparent KD of MS2 coat protein", 0.0204],
  ["AGCUGACGAGGAUAUACAUGAGGAUCACCCAUGUAAGAUCAGCGACGAUAGUCGCAAUGUAGAAGGCGUCAGCU [E3/10-A2] (Eterna round: R97, puzzle: Exclusion 3)", "MS2 coat protein", "apparent KD of MS2 coat protein", 0.299],
  ["AAGUAGACGGUGAGGAUAUAGGUCGAAUGACCGAUUUAGAAGGCACAUGAGGAUCACCCAUGUGGGUAACGUCG [Brourd's EX4 #30] (Eterna round: R97, puzzle: Brourd's mod of Exclusion 4)", "MS2 coat protein", "apparent KD of MS2 coat protein", 0.0241],
  ["AAAAUGUCAGGAUAUUGUUAGUUUAGUUGUUUGUAUUAGUUCGAGAAGGGACAUGAGGAUCACCCAUGUGAAAA [Ex4 #68] (Eterna round: R97, puzzle: Exclusion 4)", "MS2 coat protein", "apparent KD of MS2 coat protein", 0.0425],
  ["AACCAGCGAGGAUAUGCUUGAGCUUGUUCUGGUUAUAAUCGACUUGAGGAUCACCCAAGUAGAAGGUGCUGGCG [EX2 #57] (Eterna round: R97, puzzle: Exclusion 2)", "MS2 coat protein", "apparent KD of MS2 coat protein", 0.0426],
  ["AGAUCACAUGAGGAUCACCCAUGUGAGGAUAUCGACUGAACAGCUUCGGCUGUUCAGUCGAGAAGGCACAAUUA [EX1 #41] (Eterna round: R97, puzzle: Exclusion 1)", "MS2 coat protein", "apparent KD of MS2 coat protein", 0.0451]
]}

# return apparent KD of MS2 coat protein for UCACAAGCUGUGGGUGGUGACAUGAGGAUCACCCAUGUUUUGCUCGUCUUGUGCCGGGCCCGGCGCCCGGGCCCGGC [-42.1, -69.5, A 12%] (Eterna round: R97, puzzle: Sensor, turn-off variant 1) , test system: MS2 coat protein
0.929

// output apparent KD of MS2 coat protein; input CUUAAUUGUCAGAUGGGUGACAUGAGGAUCACCCAUGUCACAAGCUUUUUGCUCGUCUUAUAAUUAACCCAUCUGAC [Stov1/11-A4] (Eterna round: R97, puzzle: Sensor, turn-off variant 1) ; system MS2 coat protein
0.0135

Enter recorded apparent KD of MS2 coat protein with MS2 coat protein for CCGCGUGAUUAGGAUAUCAAACUAGCGUGUACAUGAGAAGGGAUCACAUGAGGAUCACCCAUGUAAGGGAUCCU [Eternabot (L1) Solution 69] (Eterna round: R97, puzzle: Exclusion 6) here.
0.0932

Report apparent KD of MS2 coat protein from MS2 coat protein testing of CAUAAGUGAGGAUAUCCUGGCCCUAUGCGUUAGGCGCGCUAGGAGAAGGCACAUGAGGAUCACCCAUGUCUCUC [Eternabot (L1) Solution 21] (Eterna round: R97, puzzle: Exclusion 4)
0.0766

Lab note: MS2 coat protein assay, enter apparent KD of MS2 coat protein for AUCGUGCAGCUUUGCUGUACGAGUACAUGAGGAUCACCCAUGUAGGAUAUGGUACGCAAAGCGUGCUAGAAGGAUAUGAGAUUA [Mat - Exclusion NG 3 - Mod of JL - D96] (Eterna round: R96, puzzle: Exclusion NG 3) here
0.0242

Fetch value of apparent KD of MS2 coat protein on MS2 coat protein for AUCAGCUCGUGAGGAUAUAUUAACAUGAGGAUCACCCAUGUAAGAUCAGGCUUCGGCCAAUGUUAAUAGAAGGCACGAGCUGAU [ENG2/12-A2] (Eterna round: R96, puzzle: Exclusion NG 2) .
0.239

Give apparent KD of MS2 coat protein only, for UUGUGCACGCUGCGGUCCUACAUGAGGAUCACCCAUGUGGUCUGGUGGCGUGGGUCACCGGACUUGGCUCGUCUUGA [salish99_S_TOV1_R5_061] (Eterna round: R97, puzzle: Sensor, turn-off variant 1) , using MS2 coat protein data.
0.0527

Fetch value of apparent KD of MS2 coat protein on MS2 coat protein for CGGUGUAGAGGAUAUACGUGAAUUUUGUUAUAUAAUAAUUUACAUGAGGAUCACCCAUGUAGAAGGCUAUAGCG [JR_Ex2_Sub084] (Eterna round: R97, puzzle: Exclusion 2) .
0.0234

GET apparent KD of MS2 coat protein where system = MS2 coat protein and item = UCAUGUCCAGAGGAUAUGUAGCGGGAGACCGCAACAGAAGGCUGGACAUGAGGAUCACCCAUGUGCGCCUUCAA [jl-ex3-4.28 ViennaUCT mod] (Eterna round: R97, puzzle: Exclusion 6)
0.043

Check MS2 coat protein data and give apparent KD of MS2 coat protein for GUAGAGUCAGGAUAUACAAGAUCGAUAGAUCAAAGGUCCAUACAUGAGGAUCACCCAUGUAGAAGGGACUCUAC [Mat - Exclusion 2 - Eli Mod - D9] (Eterna round: R97, puzzle: Exclusion 2) .
0.0372
